B1: TPR 5TU (parent)
chain: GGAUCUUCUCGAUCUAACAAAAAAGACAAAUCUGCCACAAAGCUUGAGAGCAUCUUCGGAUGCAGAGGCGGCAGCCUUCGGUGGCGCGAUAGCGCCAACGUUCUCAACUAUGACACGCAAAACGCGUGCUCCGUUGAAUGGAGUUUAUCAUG

Variants of: B1
test_summary: polymerase ribozyme fitness, log enrichment relative to wild type (log ratio); higher = more active; in vitro selection for triplet polymerase activity
This sample holds only a part of the variants without activity.
assay_metric: polymerase ribozyme fitness (log ratio)

Query: Supply polymerase ribozyme fitness (log ratio) value. Item: G25U U148A
Result: ≤ -4.2

Query: Supply polymerase ribozyme fitness (log ratio) value. Item: G11C U56A G86A
Result: ≤ -4.2

Query: Supply polymerase ribozyme fitness (log ratio) value. Item: A89C C93U G136C
Result: ≤ -4.2

Query: Supply polymerase ribozyme fitness (log ratio) value. Item: U6G A12U A20U C51A C96A G100U C118A U148C
Result: ≤ -4.2

Query: Supply polymerase ribozyme fitness (log ratio) value. Item: U44A G50A C79A C99U U102G C108U
Result: ≤ -4.2

Query: Supply polymerase ribozyme fitness (log ratio) value. Item: A22G A40G A52C C75U C99A A107G C108U U134A
Result: ≤ -4.2

Query: Supply polymerase ribozyme fitness (log ratio) value. Item: C54U C93G U145A
Result: ≤ -4.2

Query: Supply polymerase ribozyme fitness (log ratio) value. Item: G42A A49C C69G A137U
Result: ≤ -4.2

Query: Supply polymerase ribozyme fitness (log ratio) value. Item: A39G G88A A142U
Result: ≤ -4.2

Query: Supply polymerase ribozyme fitness (log ratio) value. Item: U44G G58U A98G U144A
Result: ≤ -4.2

Query: Supply polymerase ribozyme fitness (log ratio) value. Item: C14U C54U C87A A89G C96U A121U A142C
Result: ≤ -4.2

Query: Supply polymerase ribozyme fitness (log ratio) value. Item: A115C U145C
Result: -2.43

Query: Supply polymerase ribozyme fitness (log ratio) value. Item: A23C U31G C108G A115G
Result: ≤ -4.2

Query: Supply polymerase ribozyme fitness (log ratio) value. Item: C69A A73G G92C
Result: -1.54

Query: Supply polymerase ribozyme fitness (log ratio) value. Item: A47G A49C A52G G81U G83C U134A
Result: ≤ -4.2

Query: Supply polymerase ribozyme fitness (log ratio) value. Item: G58A A66C G74C C131G G136U
Result: ≤ -4.2

Query: Supply polymerase ribozyme fitness (log ratio) value. Item: A47C A73G
Result: -0.266

Query: Supply polymerase ribozyme fitness (log ratio) value. Item: G50C C75U C85G
Result: ≤ -4.2

Query: Supply polymerase ribozyme fitness (log ratio) value. Item: A41C U53A C76U
Result: -1.65

Query: Supply polymerase ribozyme fitness (log ratio) value. Item: U61G C85A G141A
Result: -1.58

Query: Supply polymerase ribozyme fitness (log ratio) value. Item: U56G U135A
Result: -1.84

Query: Supply polymerase ribozyme fitness (log ratio) value. Item: U6G G34C A52U A89G C93A A107U A115U A150C
Result: ≤ -4.2

Query: Supply polymerase ribozyme fitness (log ratio) value. Item: A23U U148C
Result: -4.13

Query: Supply polymerase ribozyme fitness (log ratio) value. Item: C35U C57U C95G C99G A120U
Result: -3.85

Query: Supply polymerase ribozyme fitness (log ratio) value. Item: C14A A19G A26U C79A G83U A119C
Result: ≤ -4.2

Query: Supply polymerase ribozyme fitness (log ratio) value. Item: A40G C85U
Result: -2.16

Query: Supply polymerase ribozyme fitness (log ratio) value. Item: C96U G141C
Result: -0.372

Query: Supply polymerase ribozyme fitness (log ratio) value. Item: U33G G34U
Result: ≤ -4.2

Query: Supply polymerase ribozyme fitness (log ratio) value. Item: A40G G42U G74C
Result: ≤ -4.2

Query: Supply polymerase ribozyme fitness (log ratio) value. Item: G50C U55G C63A C76G A91G C125G U145C
Result: ≤ -4.2

Query: Supply polymerase ribozyme fitness (log ratio) value. Item: C57U U61G G86A A89U
Result: -3.74

Query: Supply polymerase ribozyme fitness (log ratio) value. Item: C8A G25U U31A U82C C118G U145C
Result: ≤ -4.2

Query: Supply polymerase ribozyme fitness (log ratio) value. Item: U9A C10U C75A C87A A110G A119C
Result: ≤ -4.2

Query: Supply polymerase ribozyme fitness (log ratio) value. Item: U53A U55A G62C
Result: -2.35

Query: Supply polymerase ribozyme fitness (log ratio) value. Item: C69U C85G G141A
Result: -2.66

Query: Supply polymerase ribozyme fitness (log ratio) value. Item: A29G C35U U145C
Result: -3.89

Query: Supply polymerase ribozyme fitness (log ratio) value. Item: G58C C63U C95G
Result: -2.14

Query: Supply polymerase ribozyme fitness (log ratio) value. Item: U4G A17U C51U A52U C57A C75G G83U G117U G136U
Result: ≤ -4.2

Query: Supply polymerase ribozyme fitness (log ratio) value. Item: A17C A23U G59U G84A U90C U151A
Result: ≤ -4.2

Query: Supply polymerase ribozyme fitness (log ratio) value. Item: A29C A52G U55A C75G A106U A110G A121U U127A
Result: ≤ -4.2

Query: Supply polymerase ribozyme fitness (log ratio) value. Item: U44G G65A A66C A91G
Result: ≤ -4.2

Query: Supply polymerase ribozyme fitness (log ratio) value. Item: A41C U55A G133A
Result: ≤ -4.2

Query: Supply polymerase ribozyme fitness (log ratio) value. Item: A40U G92C U102C C103G A113G C132G U146C G152U
Result: ≤ -4.2

Query: Supply polymerase ribozyme fitness (log ratio) value. Item: U56A G84A U127G
Result: -3.06

Query: Supply polymerase ribozyme fitness (log ratio) value. Item: A39U U53A A91G A97G U111G
Result: -4.05

Query: Supply polymerase ribozyme fitness (log ratio) value. Item: C57G G67U G92C A106C
Result: ≤ -4.2

Query: Supply polymerase ribozyme fitness (log ratio) value. Item: C32G C54U A73C C79U C87G U145G
Result: ≤ -4.2

Query: Supply polymerase ribozyme fitness (log ratio) value. Item: A49U U56A C99G A147G
Result: ≤ -4.2

Query: Supply polymerase ribozyme fitness (log ratio) value. Item: A41G U104G C125G
Result: -1.21

Query: Supply polymerase ribozyme fitness (log ratio) value. Item: U13A C76A U148G
Result: ≤ -4.2

Query: Supply polymerase ribozyme fitness (log ratio) value. Item: A49C U55A
Result: ≤ -4.2

Query: Supply polymerase ribozyme fitness (log ratio) value. Item: C35G G83C A91C C108U G136U
Result: ≤ -4.2

Query: Supply polymerase ribozyme fitness (log ratio) value. Item: A12G A24U C87U
Result: 0.648

Query: Supply polymerase ribozyme fitness (log ratio) value. Item: A39U G74A C85U A91C C125A
Result: ≤ -4.2

Query: Supply polymerase ribozyme fitness (log ratio) value. Item: U82G G86A
Result: -0.594

Query: Supply polymerase ribozyme fitness (log ratio) value. Item: U56A G88U U104C G124U
Result: ≤ -4.2

Query: Supply polymerase ribozyme fitness (log ratio) value. Item: A23U C54A G83U U102G
Result: ≤ -4.2

Query: Supply polymerase ribozyme fitness (log ratio) value. Item: C54U C95A G126U U148A
Result: ≤ -4.2

Query: Supply polymerase ribozyme fitness (log ratio) value. Item: U6A C69G G84U U145C
Result: -1.67

Query: Supply polymerase ribozyme fitness (log ratio) value. Item: C99G A121C U151A
Result: ≤ -4.2

Query: Supply polymerase ribozyme fitness (log ratio) value. Item: G126A
Result: 0.682

Query: Supply polymerase ribozyme fitness (log ratio) value. Item: A41C C87G G100C G126A A142C
Result: ≤ -4.2

Query: Supply polymerase ribozyme fitness (log ratio) value. Item: C10G C36U G70C C79A C95G A115U
Result: ≤ -4.2

Query: Supply polymerase ribozyme fitness (log ratio) value. Item: C14A A23C A66U C93A G128U U151A
Result: ≤ -4.2

Query: Supply polymerase ribozyme fitness (log ratio) value. Item: C51A U55G A60G C93U
Result: -2.7

Query: Supply polymerase ribozyme fitness (log ratio) value. Item: C27A C54G C105U
Result: ≤ -4.2

Query: Supply polymerase ribozyme fitness (log ratio) value. Item: C32U A52G U77G A97C U144A
Result: ≤ -4.2

Query: Supply polymerase ribozyme fitness (log ratio) value. Item: G58A A64U G74A C79A U90C C96A C149A
Result: ≤ -4.2

Query: Supply polymerase ribozyme fitness (log ratio) value. Item: G46C C99G U101G C105G G124A
Result: -2.54

Query: Supply polymerase ribozyme fitness (log ratio) value. Item: A24G U31A C38G U53A C57A U77C G83A A137C
Result: ≤ -4.2

Query: Supply polymerase ribozyme fitness (log ratio) value. Item: U31C G86U C96U
Result: -0.694

Query: Supply polymerase ribozyme fitness (log ratio) value. Item: C51G C79G C96G
Result: ≤ -4.2

Query: Supply polymerase ribozyme fitness (log ratio) value. Item: C18U G58C G86A U104C
Result: -1.79

Query: Supply polymerase ribozyme fitness (log ratio) value. Item: C8U C79G G84A G94C G136C A138G A150G
Result: ≤ -4.2
